# system-tested: human M1 receptor (Homo sapiens, UniProt P11229)
# Sequence (P11229 whole entry): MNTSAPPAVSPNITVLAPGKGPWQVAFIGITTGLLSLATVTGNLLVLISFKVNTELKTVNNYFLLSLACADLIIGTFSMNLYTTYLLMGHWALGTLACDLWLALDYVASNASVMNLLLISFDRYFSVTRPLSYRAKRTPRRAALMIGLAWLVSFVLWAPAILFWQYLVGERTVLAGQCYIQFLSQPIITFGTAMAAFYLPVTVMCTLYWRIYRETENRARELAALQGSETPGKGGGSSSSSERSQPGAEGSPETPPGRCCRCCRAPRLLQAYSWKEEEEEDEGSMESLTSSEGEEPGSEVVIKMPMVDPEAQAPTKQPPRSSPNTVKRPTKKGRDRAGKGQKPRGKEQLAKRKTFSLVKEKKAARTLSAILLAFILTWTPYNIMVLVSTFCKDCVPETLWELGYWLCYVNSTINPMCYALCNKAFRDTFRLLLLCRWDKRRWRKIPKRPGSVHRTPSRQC
# assay: In vitro functional assay of muscarinic acetylcholine receptor activity (aequorin calcium flux, antagonist mode vs EC80 acetylcholine), M1
# Format: cell-based
# conditions: CHO-K1 cells stably expressing human M1 receptor with Aequorin; decrease in EC80 acetylcholine response; read-out: M1 IC50
pIC50: −log10 of the molar value.
The entries below are paired with their reported pIC50.

Reference set (5 entries):
* CC1CN(c2ccncc2)CCN1C(=O)CCCc1cccc2ncccc12 (stereo not shown) | 6.00 to 7.00
* O=C(CCS(=O)(=O)c1cccc2nccn12)N1CCN(c2ccc(C(F)(F)F)cn2)CC1 | 5.00 to 6.00
* O=C(N1CC(Oc2cccc3ncccc23)C1)N1C[C@H]2CC[C@@H](C1)N2c1ccc(F)cn1 | 5.00 to 6.00
* Cc1cc(F)cnc1N1CC(C)N(C(=O)CCS(=O)(=O)c2cccc3ncsc23)C[C@H]1C (stereo partly shown) | > 7.00
* Cc1cc(C#N)ncc1N1CCN(C(=O)CCNCc2c(F)ccc3nccn23)[C@@H](C)C1 | 5.00 to 6.00

For human M1 receptor (Homo sapiens, UniProt P11229), give pIC50 of the listed molecule: N#Cc1ccc(C2CC3CCC2CN3C(=O)CCS(=O)(=O)c2cccc3ncsc23)nc1 (stereo not shown)
> 7.00

For human M1 receptor (Homo sapiens, UniProt P11229), give pIC50 of the listed molecule: "C[C@H]1CN(c2ccc(C#N)cn2)CCN1C(=O)CCS(=O)(=O)c1cccc2ncsc12"
6.00 to 7.00

For human M1 receptor (Homo sapiens, UniProt P11229), give pIC50 of the listed molecule: "C[C@H]1CN(c2ccnc(N)c2)CCN1C(=O)CCS(=O)(=O)c1cccc2ncsc12"
> 7.00

For human M1 receptor (Homo sapiens, UniProt P11229), give pIC50 of the listed molecule: "Cc1cc(C#N)ncc1N1CCN(C(=O)CCS(=O)(=O)c2cccc3nccn23)[C@@H](C)C1"
> 7.00

For human M1 receptor (Homo sapiens, UniProt P11229), give pIC50 of the listed molecule: "N#Cc1ccc(N2C3CCC2CN(C(=O)CCOCc2cccc4ncc(C(F)(F)F)n24)C3)nc1"
5.00 to 6.00

* * *

# system-tested: UniProt:P08172
# Sequence (P08172 1-466): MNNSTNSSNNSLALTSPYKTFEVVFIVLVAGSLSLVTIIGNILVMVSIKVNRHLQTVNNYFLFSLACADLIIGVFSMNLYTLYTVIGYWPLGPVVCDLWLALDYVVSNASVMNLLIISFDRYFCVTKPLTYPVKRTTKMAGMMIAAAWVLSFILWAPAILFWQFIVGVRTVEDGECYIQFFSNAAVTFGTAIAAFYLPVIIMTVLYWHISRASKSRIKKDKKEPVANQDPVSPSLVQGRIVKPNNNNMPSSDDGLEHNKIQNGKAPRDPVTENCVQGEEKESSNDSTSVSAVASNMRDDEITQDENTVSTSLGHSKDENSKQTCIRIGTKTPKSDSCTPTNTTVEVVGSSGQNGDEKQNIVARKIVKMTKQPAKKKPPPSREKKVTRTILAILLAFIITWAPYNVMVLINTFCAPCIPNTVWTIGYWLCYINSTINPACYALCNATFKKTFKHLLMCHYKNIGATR
# assay: In vitro functional assay of muscarinic acetylcholine receptor activity, M2
# Format: cell-based
# conditions: antagonist IC50 at M2; read-out: M2 IC50
test-readout: IC50

Reference set (3 entries):
• N#Cc1ccc(N2C3CCC2CN(C(=O)CCN(Cc2cccc4ncsc24)C2CC2)C3)nc1 = 0.1 to 1 µM
• CC1CN(c2ccc(F)cn2)CCN1C(=O)[C@H]1C[C@H](Oc2cccc3ncsc23)C1 (some centres unmarked) = > 10 µM
• N#Cc1cc(N2CCN(C(=O)CCS(=O)(=O)c3cccc4ncsc34)CC2)ccn1 = > 10 µM

Give reported IC50 value for "O=C(CCS(=O)(=O)c1cccc2nccn12)N1C[C@H]2CC[C@@H](C1)N2c1ccncc1F"
1 to 10 µM

Give reported IC50 value for "C[C@@H]1CN(c2ncc(F)cc2Cl)CCN1C(=O)CCCc1cccc2ncccc12"
1 to 10 µM

Give reported IC50 value for "O=C(CCNCc1cccc2ncnn12)N1CC2CCC(C1)N2c1ccc(Cl)cn1"
> 10 µM

Give reported IC50 value for "N#Cc1ccc(N2C3CCC2CN(C(=O)CCNCc2cccc4nsnc24)C3)nc1"
1 to 10 µM

Give reported IC50 value for "Cc1cncc(Cl)c1N1CCN(C(=O)CCS(=O)(=O)c2cccc3ncsc23)[C@@H](C)C1"
> 10 µM

Give reported IC50 value for "O=C(CCOCc1cccc2nccn12)N1C[C@H]2CC[C@@H](C1)N2c1ccncc1F"
1 to 10 µM

Give reported IC50 value for "O=C(COCc1cccc2ncccc12)N1C[C@H]2CC[C@@H](C1)N2c1ccc(F)cn1"
1 to 10 µM

Give reported IC50 value for N#Cc1ccc(C2CC3CCC(C2)N3C(=O)CCS(=O)(=O)c2cccc3ncsc23)nc1 (centres unmarked)
1 to 10 µM

Give reported IC50 value for "O=C([C@H]1C[C@H](Oc2cccc3ncsc23)C1)N1CC2CCC(C1)N2c1ncc(Cl)cn1"
1 to 10 µM

Give reported IC50 value for "N#Cc1ccc(N2C3CCC2CN(C(=O)CCOCc2cccc4c2OCO4)C3)nc1"
> 10 µM

* * *

# system-tested: M2 (Homo sapiens, UniProt P08172)
# assay: In vitro functional assay of muscarinic acetylcholine receptor activity, M2
# Type: cell-based
test-readout: IC50

Reference set (6 entries):
• N#Cc1ccc(N2C3CCC2CN(C(=O)C(F)(F)CNCc2cccc4ncsc24)C3)nc1 = 100 to 1000 nM
• N#Cc1ccc(N2C3CCC2CN(C(=O)C2CC(=Cc4cccc5ncccc45)C2)C3)nc1 (stereo not shown) = 100 to 1000 nM
• CN(CCC(=O)N1CC2CCC(C1)N2c1ccc(C#N)cn1)Cc1cccc2ncsc12 = 100 to 1000 nM
• N#Cc1ccc(N2CC3CCC(C2)N3C(=O)CCS(=O)(=O)c2cccc3ncsc23)nc1 = 100 to 1000 nM
• N#Cc1ccc(N2C3CCC2CN(C(=O)COCCc2cccc4nccnc24)C3)nc1 = 1000 to 10000 nM
• O=C(N1CC(Oc2cccc3cnccc23)C1)N1C[C@H]2CC[C@@H](C1)N2c1ccc(F)cn1 = 100 to 1000 nM

For M2 (Homo sapiens, UniProt P08172), give IC50 of the listed compound: "Cc1cc(F)cnc1N1[C@@H]2CC[C@H]1CN(C(=O)CCCc1cccc3ncccc13)C2"
100 to 1000 nM

For M2 (Homo sapiens, UniProt P08172), give IC50 of the listed compound: "COc1cnc2cccc(CNCC(=O)N3C[C@H]4CC[C@@H](C3)N4c3ccncc3F)c2c1"
100 to 1000 nM

* * *

# system-tested: human M1 receptor (Homo sapiens)
# assay: In vitro functional assay of muscarinic acetylcholine receptor activity (aequorin calcium flux, antagonist mode vs EC80 acetylcholine), M1
# Assay type: cell-based
# Procedure: CHO-K1 cells stably expressing human M1 receptor with Aequorin (Perkin Elmer) were grown in F12 media, 10% FBS with 0.4 mg/mL geneticin and […]. Cells were grown to confluence and frozen down to be assayed at a later date. […] Calcium flux was measured using the FlexStation 3 (Molecular Devices). […] Antagonist activity was analyzed as a concentration dependent decrease in the EC80 acetylcholine response. […] The IC50 of the compounds was calculated from the dose response curve.
test-readout: IC50

Reference set (3 entries):
• Cc1nc2cccc(S(=O)(=O)CCC(=O)N3C[C@H]4CC[C@@H](C3)N4c3ccncc3F)c2o1 [Example 103] = < 100 nM
• COc1cnc2cccc(CCOCC(=O)N3CC4CCC(C3)N4c3ccc(C#N)cn3)c2c1 [Example 181] = < 100 nM
• N#Cc1cc(N2C3CCC2CN(C(=O)CCNCc2cccc4ncsc24)C3)ccn1 [Example 159] = < 100 nM

Give reported IC50 value for O=C(COCCc1cccn2ncnc12)N1CC2CCC(C1)N2c1ccc(Cl)cn1 [Example 179]
< 100 nM

Give reported IC50 value for O=C(CCNCc1cccc2ncsc12)N1CC2CCC(C1)N2c1ccc(C(F)(F)F)cn1 [Example 148]
100 to 1000 nM

Give reported IC50 value for Cc1ccc(COCCC(=O)N2CC3CCC(C2)N3c2ccc(C#N)cn2)c2cccnc12 [Example 176]
100 to 1000 nM

Give reported IC50 value for N#Cc1ccc(N2[C@@H]3CC[C@H]2CN(C(=O)[C@H]2C[C@H](Nc4cccc5ncccc45)C2)C3)nc1 [Example 45]
100 to 1000 nM

Give reported IC50 value for N#Cc1ccc(-c2ccc(N3C4CCC3CN(C(=O)CCNCc3cccc5ncnn35)C4)cc2)nc1 [Example 175]
100 to 1000 nM

* * *

# system-tested: UniProt P20309
# Sequence (P20309 whole entry): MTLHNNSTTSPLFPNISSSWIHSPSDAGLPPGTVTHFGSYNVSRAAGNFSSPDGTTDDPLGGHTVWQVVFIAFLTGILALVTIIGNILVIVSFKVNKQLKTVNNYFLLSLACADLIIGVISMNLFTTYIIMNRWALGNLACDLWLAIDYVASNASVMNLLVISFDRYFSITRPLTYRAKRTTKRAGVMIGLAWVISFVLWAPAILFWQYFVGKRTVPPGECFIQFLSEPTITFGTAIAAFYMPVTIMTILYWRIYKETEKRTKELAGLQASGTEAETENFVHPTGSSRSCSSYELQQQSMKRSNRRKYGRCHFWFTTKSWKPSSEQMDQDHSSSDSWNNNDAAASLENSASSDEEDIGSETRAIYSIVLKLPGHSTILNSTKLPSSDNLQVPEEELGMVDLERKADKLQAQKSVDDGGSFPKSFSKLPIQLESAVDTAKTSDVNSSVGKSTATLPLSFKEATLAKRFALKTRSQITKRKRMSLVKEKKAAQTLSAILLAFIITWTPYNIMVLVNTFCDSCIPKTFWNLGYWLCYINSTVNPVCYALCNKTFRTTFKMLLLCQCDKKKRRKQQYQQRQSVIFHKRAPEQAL
# assay: In vitro functional assay of muscarinic acetylcholine receptor activity, M3
# Type: cell-based
# conditions: antagonist IC50 at M3; read-out: M3 IC50
# Method: [The procedure below names another target; the source lists this target under the same test.] CHO-K1 cells stably expressing human M1 receptor with Aequorin (Perkin Elmer) were grown in F12 media, 10% FBS with 0.4 mg/mL geneticin and […]. Cells were grown to confluence and frozen down to be assayed at a later date. […] Calcium flux was measured using the FlexStation 3 (Molecular Devices). […] Antagonist activity was analyzed as a concentration dependent decrease in the EC80 acetylcholine response. […] The IC50 of the compounds was calculated from the dose response curve.
test-readout: IC50

Reference set (8 entries):
• N#Cc1cc(N2C3CCC2CN(C(=O)CCS(=O)(=O)c2cccc4nccn24)C3)ccc1F = > 10 µM
• N#Cc1ccc(N2C3CCC2CN(C(=O)CCNCc2cccc4ncnn24)C3)cc1 = > 10 µM
• N#Cc1ccc(N2C3CCC2CN(C(=O)COCCc2cccc4ncnn24)C3)nc1 = 1 to 10 µM
• O=C(CCOCc1cccc2nccn12)N1C[C@H]2CC[C@@H](C1)N2c1ccncc1F = > 10 µM
• C[C@H]1CN(c2c[nH]c(=O)cc2Cl)CCN1C(=O)CCS(=O)(=O)c1cccc2ncsc12 = > 10 µM
• COc1cnc2cccc(CCCC(=O)N3CCN(c4ccncc4F)CC3)c2c1 = > 10 µM
• Cc1ccncc1N1CCN(C(=O)CCCc2cccc3ncccc23)[C@H](C)C1 = 1 to 10 µM
• O=C(CCNCc1cccc2ncsc12)N1CC2CCC(C1)N2c1ccc(C(F)(F)F)cn1 = 1 to 10 µM

Give reported IC50 value for "N#Cc1ccc(N2C3CCC2CN(C(=O)CCNCc2cccc4nsnc24)C3)nc1"
> 10 µM

Give reported IC50 value for "N#Cc1ccc(N2C3CCC2CN(C(=O)CCOCc2cccc4c2OCO4)C3)nc1"
> 10 µM

Give reported IC50 value for "O=C(CCS(=O)(=O)c1cccc2ncsc12)N1CCN(c2ccc(C(F)(F)F)cn2)CC1"
1 to 10 µM

Give reported IC50 value for "Cc1nc2cccc(CNCC(=O)N3C[C@H]4CC[C@@H](C3)N4c3ccncc3F)c2o1"
> 10 µM

Give reported IC50 value for "O=C(CCOCc1cccc2ncsc12)N1C[C@H]2CC[C@@H](C1)N2c1ccncc1F"
1 to 10 µM

Give reported IC50 value for "Cc1cc(F)cnc1N1[C@@H]2CC[C@H]1CN(C(=O)CCCc1cccc3ncccc13)C2"
1 to 10 µM

Give reported IC50 value for "O=C(CNCCc1cccn2nccc12)N1C[C@H]2CC[C@@H](C1)N2c1ccncc1F"
> 10 µM

Give reported IC50 value for "Cc1cc(F)cnc1N1CCN(C(=O)CCS(=O)(=O)c2cccc3ncsc23)[C@@H](C)C1"
1 to 10 µM

Give reported IC50 value for "O=C(CCS(=O)(=O)c1cccc2ncsc12)N1CCN(c2ccc(CO)cc2)CC1"
> 10 µM
